# MEASURED ON: Abf1 (UniProt P14164)
# Sequence: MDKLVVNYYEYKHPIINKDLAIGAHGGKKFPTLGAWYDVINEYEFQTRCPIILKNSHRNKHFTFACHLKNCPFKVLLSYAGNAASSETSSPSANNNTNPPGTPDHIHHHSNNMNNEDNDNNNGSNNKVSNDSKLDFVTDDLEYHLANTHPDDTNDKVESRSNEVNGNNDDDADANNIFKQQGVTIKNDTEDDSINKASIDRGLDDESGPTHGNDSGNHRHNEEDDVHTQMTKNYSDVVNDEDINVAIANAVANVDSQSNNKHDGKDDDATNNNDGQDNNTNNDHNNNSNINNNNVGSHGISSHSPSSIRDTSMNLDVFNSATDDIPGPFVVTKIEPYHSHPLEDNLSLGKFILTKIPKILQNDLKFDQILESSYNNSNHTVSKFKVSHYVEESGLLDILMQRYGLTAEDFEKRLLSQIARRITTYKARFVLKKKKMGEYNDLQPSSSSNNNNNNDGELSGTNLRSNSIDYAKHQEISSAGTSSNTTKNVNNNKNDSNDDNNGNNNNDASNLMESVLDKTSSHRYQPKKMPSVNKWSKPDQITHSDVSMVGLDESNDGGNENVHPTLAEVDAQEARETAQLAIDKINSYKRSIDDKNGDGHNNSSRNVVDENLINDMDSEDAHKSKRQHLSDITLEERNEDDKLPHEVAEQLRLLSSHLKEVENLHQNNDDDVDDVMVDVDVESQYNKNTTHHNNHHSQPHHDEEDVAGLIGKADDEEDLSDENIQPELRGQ
# PROTOCOL TEXT: PBM E-score (8-mer binding enrichment) (E-score (-0.5 to 0.5)); higher = stronger / more preferred TF binding
# TEST CONTEXT: protein concentration: 200 nM; construct: GST-full length
Over roughly 33,000 sequences, “E-score (-0.5 to 0.5)” has its median near -0.015; the highest 2% begin near 0.3. What follows is part of a selection rich in the highest values, with near analogues and random picks from the rest.
RECORDED ENDPOINT: PBM E-score
Answer with a bare number; do not write a unit.

CATCCCCG = -0.108
ACGTCTAG = 0.167
AATCACCA = 0.24
GGGCCGTA = 0.244
AGGTGATG = 0.163
GACGGGAA = 0.098
CCGTCATA = 0.37
CGGTGATC = 0.214
TAGTTCAA = -0.0129
CCACGAAC = 0.338

Inquiry: Form entry - test system: Abf1 (UniProt P14164); read-out: PBM E-score; sequence: GTCATTTA
Reply text: 0.313

Inquiry: Check GGTAATAC too.
Reply text: 0.099
